# assay_target: Guanine nucleotide-binding protein G(i) subunit alpha-1 (Homo sapiens)
# protocol: qHTS Assay for Inhibitors of RGS12 GoLoco Motif Activity (Red Fluorophore); also: nearly all actives have a fitted effect of over 30% in size; also: potency is read from the fitted curve at half-maximal effect
# condition_summary: Gai1:RGS12 GoLoco peptide FP, rhodamine, 10 min; series mostly up to 61.6 µM
Among all 230,000 compounds or so, about 1,000 (0.43%) were called active. Only a selection was taken, and actives are over-represented in it overall.
measured_attribute: Potency

Worked set:
Cc1ccc(C2=C/C(=C\c3cccnc3)C(=O)O2)cc1 = 0.794 µM (active)
O=C(Nc1cccc(F)c1)N1CCC2(CC1)CCN(S(=O)(=O)c1ccccc1)CC2 = inactive
O=C(/C=C/NCc1ccc(F)cc1)c1ccccc1 = inactive
COc1ccc(-c2nc(CS(=O)CC(=O)NCc3ccccn3)c(C)o2)cc1 (stereo unspecified) = 14.1 µM (active)

Inquiry: Write down measured Potency (Guanine nucleotide-binding protein G(i) subunit alpha-1 (Homo sapiens)) for this compound. `Cc1ccc(CN2CCN(/N=C/c3cccnc3)CC2)c(C)c1`
Reply text: inactive

---

# assay_target: Guanine nucleotide-binding protein G(i) subunit alpha-1 (Homo sapiens)
# protocol: qHTS Assay for Inhibitors of RGS12 GoLoco Motif Activity (Red Fluorophore); also: nearly all actives have a fitted effect of over 30% in size
# condition_summary: Gai1:RGS12 GoLoco peptide FP, rhodamine, 10 min; series mostly up to 61.6 µM
About 1,000 (0.43%) of roughly 230,000 compounds were called active. The call rests on the fitted dose curve; in most records, active means well fitted inhibition curve with a large enough effect (not every such curve was filed as active); inactive means no such curve, though single readings can be large or run the other way. Only a selection was taken, and actives are over-represented in it overall.
Outcome field: choose from active, inactive

COc1ccc(C)cc1-n1nnnc1SCc1nc2ccccc2c(=O)[nH]1 = inactive
CCOC(=O)c1cc2n(c1N)-c1ccccc1C2=O = active
COc1ccccc1C1CCN(C(=S)Nc2ccc(Br)cc2)CC1 = inactive
N#Cc1ccccc1CN1C(=O)S/C(=C/c2cccn2-c2cccc(C(=O)O)c2)C1=O = inactive

Inquiry: Which outcome did this test record for the compound `CCCCCCn1c(SCC(=O)c2ccccc2)nc2c1c(=O)[nH]c(=O)n2C` ?
Reply text: inactive

Inquiry: Which outcome did this test record for the compound O=C1NC(c2ccc(-c3ccccc3[N+](=O)[O-])o2)C(C(=O)c2ccc(Cl)cc2)C(O)(C(F)(F)F)N1 (stereo unspecified) ?
Reply text: inactive
